# SYSTEM TESTED: Human immunodeficiency virus type 1 reverse transcriptase (Human immunodeficiency virus 1)
# ASSAY METHOD TEXT: Inhibition of HIV1 recombinant reverse transcriptase p66/p51 expressed in Escherichia coli
pIC50: −log10 of the molar value.
Label rule, in plain words: pIC50 of 4 and up is Condition met, under 4 is Condition not met.

>>> discrete_label("O=C1C[C@@H](c2ccc(O)cc2)Oc2c1c(O)cc(O)c2[C@H]1C(=O)c2c(O)cc(O)cc2O[C@@H]1c1ccc(O)cc1")
"Condition not met"
>>> discrete_label("O=c1cc(-c2ccc(O)cc2)oc2cc(O)cc(O)c12")
"Condition not met"
>>> discrete_label("O=c1cc(-c2ccc(O)c(-c3c(O)cc4oc(-c5ccc(O)cc5)cc(=O)c4c3O)c2)oc2cc(O)cc(O)c12")
"Condition met"
>>> discrete_label("O=C1C[C@@H](c2ccc(O)c(O)c2)Oc2c1c(O)cc(O)c2[C@H]1C(=O)c2c(O)cc(O)cc2O[C@@H]1c1ccc(O)cc1")
"Condition not met"
>>> discrete_label("O=c1cc(-c2ccc(Oc3c(O)cc4oc(-c5ccc(O)cc5)cc(=O)c4c3O)cc2)oc2cc(O)cc(O)c12")
"Condition met"

* * *

# SYSTEM TESTED: Human immunodeficiency virus type 1 reverse transcriptase (Human immunodeficiency virus 1) (UniProt Q72547)
# ASSAY METHOD TEXT: Inhibition of HIV1 recombinant reverse transcriptase p66/p51 expressed in Escherichia coli at 200 ug/mL
Classification field: enter class 1 for inhibition values not below 10%, class 0 for values below it.

>>> discrete_label("O=C1c2c(O)cc(O)cc2O[C@H](c2ccc(O)cc2)[C@H]1c1c(O)cc(O)c2c(=O)cc(-c3ccc(O)c(O)c3)oc12")
"class 1"
>>> discrete_label("O=c1cc(-c2ccc(O)cc2)oc2cc(O)cc(O)c12")
"class 1"
>>> discrete_label("Cc1ccc([C@@H]2CC(=O)c3c(cc(O)c(-c4c(O)cc(O)c5c4O[C@H](c4ccc(O)cc4)CC5=O)c3O)O2)cc1")
"class 1"
>>> discrete_label("COc1ccc([C@@H]2Oc3cc(OC)cc(OC)c3C(=O)[C@H]2c2c(OC)cc(OC)c3c(=O)cc(-c4ccc(OC)c(OC)c4)oc23)cc1")
"class 0"
>>> discrete_label("O=C1C[C@@H](c2ccc(O)cc2)Oc2c1c(O)cc(O[C@@H]1O[C@H](CO)[C@@H](O)[C@H](O)[C@H]1O)c2[C@H]1C(=O)c2c(O)cc(O)cc2O[C@@H]1c1ccc(O)cc1")
"class 0"
>>> discrete_label("O=c1cc(-c2ccc(O)c(-c3c(O)cc4oc(-c5ccc(O)cc5)cc(=O)c4c3O)c2)oc2cc(O)cc(O)c12")
"class 1"
>>> discrete_label("COc1ccc([C@@H]2CC(=O)c3c(OC)cc(OC)c([C@H]4C(=O)c5c(OC)cc(OC)cc5O[C@@H]4c4ccc(OC)cc4)c3O2)cc1")
"class 0"
>>> discrete_label("O=C1C[C@@H](c2ccc(O)cc2)Oc2c1c(O)cc(O)c2[C@H]1C(=O)c2c(O)cc(O)cc2O[C@@H]1c1ccc(O)cc1")
"class 1"
